System: ASPC1
Assay: Cytotoxicity against human ASPC1 cells harboring KRAS G12D mutant assessed as inhibition of cell growth
Type: functional, cell-based
READOUT: IC50 (nM)
One number for each entry, in nM.

See these solved cases before continuing.
# COMPOUND, U, VALUE OBSERVED
records = [
    ("Nc1ccn([C@@H]2O[C@H](CO)[C@@H](O)C2(F)F)c(=O)n1", "nM", 500),
    ("C=C1[C@@H](O)C[C@H]2Oc3cc(C)oc(=O)c3[C@@]12C", "nM", 1700),
]

Per the records, this compound ( Cc1cc2c(c(=O)o1)[C@@]1(C)CC(=O)C[C@H]1O2 (racemic) ) has IC50 equal to 2900
